Target: T1, human TIGIT on cells (human, UniProt Q495A1 22-141)
T1 construct: also called Expi293 human TIGIT over-expressing cells
T1 sequence: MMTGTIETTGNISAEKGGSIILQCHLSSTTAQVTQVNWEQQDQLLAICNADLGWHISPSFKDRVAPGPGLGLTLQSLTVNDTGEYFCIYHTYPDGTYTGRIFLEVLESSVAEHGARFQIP
Test: flow cytometry of fab; MFI on human TIGIT over-expressing Expi293 / MFI on parental Expi293
READOUT: MFIr (OE/Par) hTIGIT
Lab note: jot down the number only; don't add units.

CPA.9.057 (Fab, V domains shown, phage fab, campaign 2; fab form of CPA.9.057-H4; also called CPA.9.057 (fab)) VH: QVQLQESGPGLVKPSETLSLTCTVSGGSISSSSYYWGWIRQPPGKGLEWIGSIYYSGSTYYNPSLKSRVTISVDTSKNQFSLKLSSVTAADTAVYYCARQGAAAGNPFDIWGQGTMVTVSS VL: QSVLTQPPSVSGTPGQRVTISCSGSSSNIGSNFVYWHQQLTGTAPKLLIYRNTQRPSGVPDRFSGSKSGTSASLAIGGLRSEDEADYYCATWDDSLSAWVFGGGTKLTVL: 30

Next binder, MFIr (OE/Par) hTIGIT to be filled in.
Lookup result for CPA.9.089 (fab) (Fab, V domains shown, variant of CPA.9.027 screened as fab) VH: EVQLVETGGGLIQPGRSLRLSCAASGFTFSSYAMHWVRQAPGKGLEWVAVISYDRTPVYYADSVKGRFTISRDNSKNTLYLQMNSLRAEDTAVYYCARDPLPLHYYGMDVWGQGTTVTVSS VL: QSALTQPRSASGNPGQRVTISCSGSSSNMGRRPVNWYQQIPGTAPKLLIYSQNQRPSGVPDRFSGSQSGTSASLTISGLQSEDEAEYFCATWDDSLPRLNFGGGTKLAVL ; measured MFIr (OE/Par) hTIGIT: 110

Each recorded value in this set is attributed to patent US20240075137A1.
